Attribute: yeast fitness
B1: tRNA (parent)
chain: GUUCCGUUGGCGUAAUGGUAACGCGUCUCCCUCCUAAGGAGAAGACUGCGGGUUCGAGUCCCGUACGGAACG

# Variants of: B1
# test.summary: yeast fitness relative to wild type (ratio to wild type); higher = fitter; tRNA-Arg(CCU), competitive growth, 37 C, YPD
This sample holds only a part of the variants without activity.
Kindly provide the number alone.

GUUCUGUUGGCGUAAUGGUAACGCGUCUCCCUCCUAAGGAGAAGACUGCGGGUUCGAGUCACGUACAGAACG; 0.576
GUUCCAUUGGCGUAAUGGUAACGCGUCUCCGUCCUAAGGAGAAGACUGCGGGUUCGAGUCCCGUACGGACCG; 0.553
GUUCCGUUGGCGUAAUGGUAACGCGUCUCCCUCCUAAGGAGAAGUCUGCGGGUUCGAGUCCCGUGCGAAACG; 0.73
GUUCCGUUGGAGUAAUGGUAACGCGUCUCCCUCCUAAGGAGAUGACUGUGGGUUCGAGUCCCGUACGGAACG; 0.548
GUUCCGUUGGCGUAAUGGUAACGCGCCUCCGUCCUAAGGAGAAGACUGCGGGUUCGAGUCCCGUACGGAACG; 0.875
GUUCCGUUGGCGUAAUGGUAUCGCGUCUCACUCCUAAGGAGAAGACUGCGGGUUCGAGUCCCGUACGGAGCG; 0.756
GUUCUGUUGGCGAAAUGGUAACGUGUCUCCCUCCUAAGGAGAAGCCUGCGGGUUCGAGUCCCGUACGGAACG; 0.671
GUUCCGUUGGCGUAAUGGUAACGAGUCUCCCUCCUAAGGAGAAGACUGCGGGUUCGAGUCCCGUACGUAACG; 0.654
GUCCCGUUGGCGUAAUGGUAACGCGUCUCCCUCCUAAGGAGAAGACUGCGGGUUCGAGUCCCCUACGGAACG; 0.747
GUUCCGUUGGCAUAAUGGUCACGCGUCCCCCUCCUAAGGAGAAGACUGCGGGUUCGAGUCCCGUACGGAACG; 0.664

Entry `GUUCCGUUGGCCUAAUGGUGACGCGUCUCCCUCUUAAGGAGAAGACUGGGGGUUCGAGUCCCGUACGGAACG` : reported yeast fitness = ? 0.711

Can you handle `GUUCCGUUGGCGUAGUGGUAACACGUCUCCCUCCUAAGGAGAAGACUACGGGUUCGAGUCCCGUACGGAACG` next? 0.675

Can you handle `GAUCCGUUGGCGUAAUGGUAACGUGUCUUCCUUGUAAGGAGUAGACUGCGGGUUCGAAUCCCGUACGGAACG` next? 0.56

Can you handle `GUUCCGUUGGCGUAAUGGUAACGCGGCUCCCUCCUAAGGAGAAGACUGCGCGUUCGACUCCCGUACGGAACG` next? 0.54

Can you handle `GUUCCGUUGGCGUAAUGGUUACGCGUCUCCCUCCUAAGGAGAAGUCUGCGGGUUCGAGUCCCGUACGGAACG` next? 0.777

The measurements presented in this section are drawn from the RNAGym collection of RNA variant scans (doi:10.1126/science.aae0568).
